Reference source: patent US20100183623A1

Molecular target: T1, SdrF N1N2N3 (52-679), His-tagged recombinant A domain of S. epidermidis SdrF (Staphylococcus epidermidis (K28 genomic …, UniProt Q9KI14 53-678))
T1 construct: expressed in E. coli; also called SdrF A domain
T1 sequence: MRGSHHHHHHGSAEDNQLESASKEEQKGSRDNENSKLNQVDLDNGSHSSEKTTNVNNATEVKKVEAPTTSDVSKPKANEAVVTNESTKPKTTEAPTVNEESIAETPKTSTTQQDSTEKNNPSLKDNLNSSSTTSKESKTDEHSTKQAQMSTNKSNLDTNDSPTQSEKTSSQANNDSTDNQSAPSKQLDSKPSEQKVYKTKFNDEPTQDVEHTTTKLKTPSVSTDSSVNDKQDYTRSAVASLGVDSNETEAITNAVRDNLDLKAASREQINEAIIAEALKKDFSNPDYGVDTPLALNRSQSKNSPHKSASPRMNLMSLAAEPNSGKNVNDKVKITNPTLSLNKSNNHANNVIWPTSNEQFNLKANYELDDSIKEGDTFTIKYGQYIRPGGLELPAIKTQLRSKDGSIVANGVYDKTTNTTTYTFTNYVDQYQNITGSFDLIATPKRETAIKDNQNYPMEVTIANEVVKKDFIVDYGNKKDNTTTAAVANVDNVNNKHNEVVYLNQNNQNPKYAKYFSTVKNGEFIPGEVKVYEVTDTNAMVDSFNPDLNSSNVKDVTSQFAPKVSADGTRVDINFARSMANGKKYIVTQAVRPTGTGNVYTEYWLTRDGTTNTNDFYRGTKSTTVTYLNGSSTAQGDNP
Experiment: Biacore 3000, ligand capture of mAb, SdrF (N1N2N3) in flow
Kindly supply the reported Ka values for the records listed here.
Answer with a number only, understood to be in M⁻¹.

Prompt line: Given the binder Humanized 108-36 (antibody, V domains shown, N-linked carbohydrate chain on the asparagine at position 30 of the variable heavy chain, Humanized (veneered) variable regions with 'the appropriate light or heavy chain constant region', expressed in NSO cells; also called Hu108-36) VH: QVTLRESGPGILKPSQTLSLTCTFSGFSLNTSGMGVTWIRQPSGKGLEWLANIYWDDDKRYNPSLKSRLTISKANSRNQVFLKITSVDPVDTATYYCTRPNYLGTVYWYFDVWGQGTMVTVSS VL: EIVLTQSPATMSASPGERVTMSCSASSSVSYMYWYQQKPGQSPRVLIYDTSNLASGVPSRFSGSGSGTSYSLTISSMEPEDAATYYCQQWNGYPPTFGGGTKLEVK , what is its reported Ka?
Response line: 2.2e+09

Prompt line: Given the binder Humanized 110-15 (antibody, V domains shown, Humanized (veneered) variable regions with 'the appropriate light or heavy chain constant region', expressed in NSO cells; also called 110-15VL-Hu/110-15VH-Hu) VH: EVQLVESGGGLVQPGGSLKLSCAASGFAFSSYDMSWVRQTPEKRLEWVAYISSGGGITYYPDTVKGRFTISRDNSKNTLYVQMSSLRAEDTAVYYCTRHDRDSWFAYWGQGTLVTVSS VL: EIVLTQSPGTMSASPGERGTMSCSASSSVRYMYWYRQKPGQSPRLLIYDTSNLASGVPARFSGSGSGTSYSLTISRMEAEDAATYYCQQWSSYPPTFGGGTKLEMK , what is its reported Ka?
Response line: 1.4e+09

Prompt line: Given the binder murine anti-SdrF monoclonal antibody 110-15 (antibody, V domains shown, Mouse hybridoma antibody (fusion F110); also called Murine 110-15; 110-15VL-Mouse/110-15VH-Mouse) VH: EVQLVESGGGLVKPGGSLKLSCAASGFAFSSYDMSWVRQTPEKRLEWVAYISSGGGITYYPDTVKGRFTISRDNAKNTLYVQMSSLKSEDTAIYYCTRHDRDSWFAYWGQGTLVTVSA VL: QIVLTQSPAIMSASPGEEGTMTCSASSSVRYMYWYRQKPGSSPRLLIYDTSNLASGVPVRFSGSGSGTSYSLTISRMEAEDAATYYCQQWSSYPPTFGGGTKLEMK , what is its reported Ka?
Response line: 1.3e+08
